Quick list: inhibition per entry.
Biological target: NS3 (West Nile virus) (UniProt K4FQI5)
Sequence (K4FQI5 as listed by the source): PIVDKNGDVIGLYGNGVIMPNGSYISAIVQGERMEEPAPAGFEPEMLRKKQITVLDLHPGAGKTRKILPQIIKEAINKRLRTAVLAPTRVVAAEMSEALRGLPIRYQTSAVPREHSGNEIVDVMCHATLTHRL
Test: Functional biochemical assay to identify treatments for viral infectious disease that targets West Nile NS2B-NS3 protease. Utilizing a direct enzyme activity measurement method, reading the fluorescence intensity is used to characterize the relative potency of inhibitors as % inhibition. Synthetic construct has been made based on West Nile virus (strain NY-99) by Centre for Medicines Discovery, University of Oxford, and the assay has been performed by Stanford University.The protocol is publicly available: dx.doi.org/10.17504/protocols.io.ewov1dy37vr2/v1
Conditions: Concentration 50.0 uM, Number of replicates 1.0
All answers are understood in %, so give the number only.

Reference set, count: 5
Look up inhibition of Cc1cc(NS(=O)(=O)c2ccc(S(=O)(=O)F)cc2)c[nH]c1=O and report it.
14.8

Look up inhibition of O=Cc1nc(-c2ccccc2Cl)n2ccccc12 and report it.
41

Look up inhibition of O=Cc1ccc(N2CCC(C(=O)O)CC2)cc1 and report it.
69.5

Look up inhibition of O=Cc1ccc(N2CCCCC2)cc1 and report it.
36.7

Look up inhibition of Cc1c(C=O)c2ccccn2c1C#N and report it.
49.8

Others:
Look up inhibition of Nc1ccc2ccc(B(O)O)cc2c1 and report it.
-5.6

Look up inhibition of O=Cc1ccc(N2CCCCCC2)cc1 and report it.
57

Look up inhibition of CN(C)c1ccc(C=C(C#N)C(N)=O)cc1 and report it.
38.2

The values you see were collected from ChEMBL document CHEMBL5606459.
